Reference for the values: patent US12497460B2

System under test: T1, His9-hMSR1 (human MSR1 extracellular domain) (Homo sapiens, UniProt P21757)
T1 construct: human MSR1 extracellular domain expressed with a N-terminal nonahistidine tag; His9 (nonahistidine) (N); purchased R&D Systems 2708-MS
T1 sequence (P21757 77-451 limits assumed): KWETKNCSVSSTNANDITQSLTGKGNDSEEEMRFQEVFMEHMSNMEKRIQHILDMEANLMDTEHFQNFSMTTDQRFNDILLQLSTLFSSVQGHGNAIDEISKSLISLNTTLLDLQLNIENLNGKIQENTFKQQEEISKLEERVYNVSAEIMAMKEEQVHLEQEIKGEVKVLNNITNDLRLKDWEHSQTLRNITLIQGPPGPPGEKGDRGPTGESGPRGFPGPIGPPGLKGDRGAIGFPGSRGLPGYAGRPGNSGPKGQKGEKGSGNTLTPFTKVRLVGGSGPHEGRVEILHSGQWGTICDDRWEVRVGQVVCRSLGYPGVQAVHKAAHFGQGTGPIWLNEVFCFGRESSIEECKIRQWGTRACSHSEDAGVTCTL
Assay: Biacore surface plasmon resonance binding kinetics of anti-MSR1 mAbs, antibody-capture format
Condition: 37° C.; analyte His9-hMSR1; calculated from kinetic rates; NB = no binding observed
Property measured: Kd (pM)
Form entry: value (pM) — number only.

Worked cases, answers included:
[
  {
    "Molecule": "H1H21227N-N297D: \"The 21227N antibody was also produced as a third version with a N297D mutation\" (antibody, V domains shown) VH: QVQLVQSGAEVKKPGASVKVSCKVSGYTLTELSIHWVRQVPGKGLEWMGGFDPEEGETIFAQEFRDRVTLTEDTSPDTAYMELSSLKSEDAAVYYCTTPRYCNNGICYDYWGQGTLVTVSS VL: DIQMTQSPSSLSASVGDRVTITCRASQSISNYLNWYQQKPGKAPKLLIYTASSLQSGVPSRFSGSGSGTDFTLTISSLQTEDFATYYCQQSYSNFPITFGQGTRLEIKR",
    "Number": 3.66
  },
  {
    "Molecule": "H1H21227N: \"anti-MSR1 antibodies ... (21227N, 21231N, 21234N) were produced with the original human Fcγ portion\"; \"H1H\" = human IgG1 Fc (antibody, V domains shown, human IgG1 Fc, \"anti-MSR1 antibodies ; (21227N, 21231N, 21234N) were produced with the original human Fcγ portion\"; \"H1H\" = human IgG1 Fc) VH: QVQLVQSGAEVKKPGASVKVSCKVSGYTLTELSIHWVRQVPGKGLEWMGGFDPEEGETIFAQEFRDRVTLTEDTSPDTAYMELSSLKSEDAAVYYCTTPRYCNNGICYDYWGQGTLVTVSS VL: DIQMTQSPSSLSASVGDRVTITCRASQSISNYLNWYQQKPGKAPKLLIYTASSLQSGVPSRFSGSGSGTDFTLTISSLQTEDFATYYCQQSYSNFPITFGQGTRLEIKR",
    "Number": 7.24
  }
]

Then there is this molecule:
Please look at this molecule and report its Kd: H1H21231N: "anti-MSR1 antibodies ... (21227N, 21231N, 21234N) were produced with the original human Fcγ portion"; "H1H" = human IgG1 Fc (antibody, V domains shown, human IgG1 Fc, "anti-MSR1 antibodies ; (21227N, 21231N, 21234N) were produced with the original human Fcγ portion"; "H1H" = human IgG1 Fc) VH: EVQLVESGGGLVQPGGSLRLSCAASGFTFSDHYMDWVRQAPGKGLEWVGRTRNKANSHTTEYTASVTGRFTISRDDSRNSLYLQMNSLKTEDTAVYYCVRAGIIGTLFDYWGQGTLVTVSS VL: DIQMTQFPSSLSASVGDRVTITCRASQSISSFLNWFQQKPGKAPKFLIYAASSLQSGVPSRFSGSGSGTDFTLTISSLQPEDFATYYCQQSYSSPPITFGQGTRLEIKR
130
